Just for reference, the supplement of paper PMC6757056 is where these values come from.

B1: library; a variant is named by its letters at N, in order (parent)
chain: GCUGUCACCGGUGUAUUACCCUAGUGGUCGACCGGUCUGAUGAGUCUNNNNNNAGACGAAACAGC

variants of: B1; assay: normalized RNA/DNA level without ligand (relative to sTRSVctl = 100) (log10 (% of sTRSVctl)); ligand: hypoxanthine (xanthine aptamer); higher = less ribozyme self-cleavage, higher mRNA level; settings: HEK293T, reporter: mCherry (pCS4076), ligand present: no
reported_property: normalized RNA/DNA level without ligand (log10)
The response must contain the number and no unit.

Known results for variants:
mutations: AGUCCU
measured: 1.89
--
mutations: GGAGGU
measured: 1.78
--
mutations: UGCUUG
measured: 1.85
--
mutations: UCGGAC
measured: 1.88
--
mutations: GCGGGU
measured: 1.83

Field request: normalized RNA/DNA level without ligand (log10) | item: CUGCUA 1.77

Field request: normalized RNA/DNA level without ligand (log10) | item: UCCGUC 2.03

Field request: normalized RNA/DNA level without ligand (log10) | item: GAGUUA 1.64

Field request: normalized RNA/DNA level without ligand (log10) | item: GAGCCA 1.76

Field request: normalized RNA/DNA level without ligand (log10) | item: CGGUCA 1.8

Field request: normalized RNA/DNA level without ligand (log10) | item: CGCUCC 1.93
